Target: T1, cynomolgus IL-36γ, truncated (cynomolgus macaque (Macaca fascicularis), UniProt Q9NZH8 18-167 (human entry), limits assumed)
T1 construct: Untagged after removal of the His-SUMO tag; also called cynomolgus IL-36 gamma; cyIL-36gamma
T1 chain: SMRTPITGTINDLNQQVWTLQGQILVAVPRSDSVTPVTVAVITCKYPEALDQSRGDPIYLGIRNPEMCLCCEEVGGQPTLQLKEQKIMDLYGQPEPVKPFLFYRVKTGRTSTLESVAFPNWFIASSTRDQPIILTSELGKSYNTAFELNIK
Test: SPR, Biacore, 1:1 Langmuir fit; heads of c3 and c4 printed swapped
Description: The humanized antibodies obtained in Example 6 were tested for their binding to recombinant human or cynomolgus macaque IL36a and IL-36γ in Biacore assays. The association time was set to 60 seconds, and the final dissociation time was set to 600 seconds. Equilibrium dissociation constant KD (kd/ka) of exemplary antibodies was determined using a 1:1 Langmuir fit model (see Tables 17-18 below).
The entries below come with measured koff values attached.
Use s⁻¹ as the unit, but write only the number.

binder: 144D464A (antibody, V domains shown, Mouse monoclonal from hybridoma; mouse IgG heavy and lambda light chain; also called mouse antibody 144D464A) VH: EVQLQQSGAELVKPGASVRLSCTASGFNIKDTYIHWVKQRPEQGLEWIGRIDPAIGTTRYDPKFQGKATITTDTSSDTVHLQFSSLTSEDTAVYYCARLHYFGNNFFFDYWGQGTTLTVSS VL: QAVVTQESALTTSPGEAVTLTCRSSSGAVTTSNYANWVQEKPDHLFAGLIGGTNDRAPGVPARFSGSLIGDKAALTITGAQTEDEAIYFCALWFSNHWVFGGGTKLTVL
outcome.measure: koff
assay.value: 0.000427

Consider the record given below.
Challenge: Can you share its koff? I mean this binder: 144L249B LV9 HV10c (antibody, V domains shown, Humanized) VH: QVQLVQSGAEVKKPGASVKVSCKASGFNIKDTYIYWVRQAPGQGLEWIGRIDPAIGTTRYDPKFQGKATLTADTSTNTAYLELSSLRSEDTAVYYCARYDYSGSSFYFDYWGQGTLVTVSS VL: QAVVTQEPSLTVSPGGTVTLTCRSSTGAVTTSNYANWVQEKPGQLFTGLIGGTNDRAPGVPARFSGSLLGGKAALTLSGAQPEDEADYFCALWYSNHLVFGGGTKLTVL
Response given: 0.000603
